melting point: recorded values

For orientation, consider the following solved cases.
{"columns": ["molecule", "melting point"],
 "data": [
  ["COc1ccc(CN2C=CC=C3C2=Nc2cc(OC)ccc2S(=O)(=O)N3C)cc1", "179 to 180 °C"],
  ["COC(=O)[C@H](Cc1ccc(OS(=O)(=O)C(F)(F)F)cc1)NC(=O)OC(C)(C)C", "47 to 48 °C"],
  ["COC(=O)C(C)=CC=P(c1ccccc1)(c1ccccc1)c1ccccc1", "145 to 150 °C"],
  ["CS(=O)(=O)C(=C1CN(C(c2ccccc2)c2ccccc2)C1)c1ccc(Cl)c(Cl)c1", "170 °C"],
  ["CC(C)(C)C(O)C(=Cc1ccc2ccccc2c1)n1cncn1 (configuration not stated)", "122 to 124 °C"],
  ["COc1ccc(C(=C(c2ccc(OC)cc2)C(F)(F)F)c2ccc(F)cc2)cc1", "75 to 77 °C"],
  ["CCOc1cc(C=O)ccc1OCC(=O)O", "90 to 92.6 °C"],
  ["COc1cc(OC)c2c(=O)[nH]c(-c3cc(C)c(OCCN4Cc5ccccc5C4)c(C)c3)nc2c1", "202 °C"],
  ["CCCCS(=O)c1ccc(-n2[nH]c3ccccc3c2=O)cc1 (configuration not stated)", "168 to 169 °C"],
  ["CCC(CC)n1c(N)nc2c(Oc3c(C)cc(C)cc3C)nc(C)cc21", "208 to 210 °C"]
]}

Entry under review: COc1cc(Cc2cnc(N)nc2N)c2c(c1OC)OC(C)CC2O (configuration not stated) . Reported melting point? 201 to 203 °C

Entry under review: C#CCOc1ccc(-c2ccccc2NC(=O)C(NS(=O)(=O)CC)C(C)C)cc1OC (configuration not stated) . Reported melting point? 97 to 103 °C
